STUDY_TARGET: recombinant human liver glycogen phosphorylase (HLGPa) (Homo sapiens)
METHOD_SUMMARY: Measurement of liver glycogen phosphorylase activity (enzyme inhibitory activity against HLGPa)
RUN_PARAMETERS: Sf9 cell lysate expressing recombinant enzyme; reverse reaction (glycogen synthesis from G1-P), phosphate by malachite green, 60 min room temperature
pIC50: −log10 of the molar value.
# reported pIC50; entries follow

1) O=C(Nn1c(=O)[nH]c2ccccc2c1=O)c1cc2cc(F)ccc2[nH]1	< 7.00
2) O=C(NNC(=O)c1cc2ccc(Cl)cc2[nH]1)c1ccccc1	< 7.00

Okay, next one:
The compound listed as O=C(NNC(=O)c1cc2cc(Cl)ccc2[nH]1)Nc1cccc(Cl)c1 has a reported pIC50 of < 7.00

---

STUDY_TARGET: recombinant human liver glycogen phosphorylase (HLGPa) (Homo sapiens)
METHOD_SUMMARY: Measurement of liver glycogen phosphorylase activity (enzyme inhibitory activity against HLGPa)
RUN_PARAMETERS: Sf9 cell lysate expressing recombinant enzyme; reverse reaction (glycogen synthesis from G1-P), phosphate by malachite green, 60 min room temperature
Excerpt: Measurement Method of Liver Glycogen Phosphorylase Activity […]
Entries are grouped by IC50 into these classes: low: < 60 nM; moderate: ≥ 60 nM and < 100 nM; high: ≥ 100 nM

Qu. Sort CC(C)c1ccc2[nH]c(C(=O)NNC(=O)c3ccc(F)cc3N)cc2c1 into one of the categories.
Ans. high

---

STUDY_TARGET: recombinant human liver glycogen phosphorylase (HLGPa) (Homo sapiens)
Sequence (P06737 1-847): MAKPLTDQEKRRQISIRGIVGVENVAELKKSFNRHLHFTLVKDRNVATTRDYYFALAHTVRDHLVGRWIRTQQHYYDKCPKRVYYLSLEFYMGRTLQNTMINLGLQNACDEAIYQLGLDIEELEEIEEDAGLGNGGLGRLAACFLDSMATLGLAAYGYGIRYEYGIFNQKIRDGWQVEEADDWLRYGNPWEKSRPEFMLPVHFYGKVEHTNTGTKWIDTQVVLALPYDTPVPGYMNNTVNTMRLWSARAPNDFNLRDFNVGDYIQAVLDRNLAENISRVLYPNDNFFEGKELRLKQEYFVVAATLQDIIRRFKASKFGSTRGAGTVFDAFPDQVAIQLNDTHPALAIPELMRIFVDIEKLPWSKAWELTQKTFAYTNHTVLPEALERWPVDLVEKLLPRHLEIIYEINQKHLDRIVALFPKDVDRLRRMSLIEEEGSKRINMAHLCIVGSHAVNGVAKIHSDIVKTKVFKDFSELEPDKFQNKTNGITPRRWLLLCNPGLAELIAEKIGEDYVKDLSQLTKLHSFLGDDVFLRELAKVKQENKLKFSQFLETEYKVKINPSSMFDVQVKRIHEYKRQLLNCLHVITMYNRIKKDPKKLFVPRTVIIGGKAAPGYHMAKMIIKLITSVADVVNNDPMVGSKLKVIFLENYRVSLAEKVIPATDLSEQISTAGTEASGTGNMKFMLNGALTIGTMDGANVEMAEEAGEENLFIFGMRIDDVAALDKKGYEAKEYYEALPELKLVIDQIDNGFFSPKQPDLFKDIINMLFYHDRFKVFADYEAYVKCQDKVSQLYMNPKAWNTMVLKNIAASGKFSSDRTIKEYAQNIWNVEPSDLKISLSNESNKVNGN
METHOD_SUMMARY: Measurement of liver glycogen phosphorylase activity (enzyme inhibitory activity against HLGPa)
RUN_PARAMETERS: Sf9 cell lysate expressing recombinant enzyme; reverse reaction (glycogen synthesis from G1-P), phosphate by malachite green, 60 min room temperature
EXPERIMENTAL_ENDPOINT: pIC50
pIC50 here is simply -log10 of the concentration when that concentration is written in mol/L.

1. Cc1cccc(C(=O)NNC(=O)c2cc3cc(Cl)ccc3[nH]2)c1N [Example 1-99]	8.00
2. COC(=O)COc1ccccc1C(=O)NNC(=O)c1cc2cc(Cl)ccc2[nH]1 [Example 1-49]	6.82
3. O=C(NNC(=O)c1cc2cc(Cl)ccc2[nH]1)c1cnccn1 [Example 1-82]	6.44
4. O=C(Nn1c(=O)[nH]c2cc(Cl)ccc2c1=O)c1cc2cc(Cl)ccc2[nH]1 [Example 2-19]	7.04
5. O=C(NNC(=O)c1cccc(F)c1F)c1cc2cc(Cl)ccc2[nH]1 [Example 1-91]	7.25

The compound listed as CNc1ccccc1C(=O)NNC(=O)c1cc2cc(Cl)ccc2[nH]1 [Example 1-53] has a reported pIC50 of 6.64

The compound listed as Nc1cccc(Cl)c1C(=O)NNC(=O)c1cc2cc(Cl)ccc2[nH]1 [Example 1-55] has a reported pIC50 of 7.06

The compound listed as Cl.N=C(NNC(=O)c1cc2cc(Cl)ccc2[nH]1)c1ccccc1 [Example 6, hydrochloride] has a reported pIC50 of 7.21

The compound listed as O=C(NNC(=O)C1CCCCC1)c1cc2cc(Cl)ccc2[nH]1 [Example 1-23] has a reported pIC50 of 7.12

The compound listed as Cc1ccsc1C(=O)NNC(=O)c1cc2cc(Cl)ccc2[nH]1 [Example 1-89] has a reported pIC50 of 6.35

The compound listed as O=C(NNC(=O)c1cc2cc(Cl)ccc2[nH]1)c1ccc(Cl)cc1 [Example 1-21] has a reported pIC50 of 7.31

The compound listed as O=C(Nn1c(=O)[nH]c2cccc(Cl)c2c1=O)c1cc2cc(Cl)ccc2[nH]1 [Example 2-17] has a reported pIC50 of 7.43

The values you see were collected from patent US20050054696A1.
